Species on record: Mus musculus
RUN PARAMETERS: at 50 µM
Short version: inhibition at least 6% is T, less is F.

>  <MOLECULE>
O=C1C(I)=CC(=C(c2ccccc2C(=O)O)C2C=C(I)C(=O)C(I)=C2)C=C1I [TERAIODOPHENOLPHATHALIN]

>  <GROUP>
F

$$$$
>  <MOLECULE>
Clc1ccc(CSC(Cn2ccnc2)c2ccc(Cl)cc2Cl)cc1 (configuration not stated)

>  <GROUP>
T

$$$$
>  <MOLECULE>
Oc1c(I)cc(Cl)c2cccnc12

>  <GROUP>
F

$$$$
>  <MOLECULE>
COC(=O)C1=C(C)NC(C)=C(C(=O)OCCN(C)Cc2ccccc2)C1c1cccc([N+](=O)[O-])c1 (configuration not stated)

>  <GROUP>
T

$$$$
>  <MOLECULE>
Nc1c(/N=N/c2ccc(-c3ccc(/N=N/c4cc(S(=O)(=O)O)c5ccccc5c4N)cc3)cc2)cc(S(=O)(=O)O)c2ccccc12

>  <GROUP>
T

$$$$
>  <MOLECULE>
O=c1cc(-c2ccccc2)oc2cc(O)c(O)c(O)c12

>  <GROUP>
T

$$$$

---

MEASUREMENT TARGET: Eukaryotic peptide chain release factor GTP-binding subunit (Saccharomyces cerevisiae) (UniProt P05453)
Sequence (P05453 whole entry): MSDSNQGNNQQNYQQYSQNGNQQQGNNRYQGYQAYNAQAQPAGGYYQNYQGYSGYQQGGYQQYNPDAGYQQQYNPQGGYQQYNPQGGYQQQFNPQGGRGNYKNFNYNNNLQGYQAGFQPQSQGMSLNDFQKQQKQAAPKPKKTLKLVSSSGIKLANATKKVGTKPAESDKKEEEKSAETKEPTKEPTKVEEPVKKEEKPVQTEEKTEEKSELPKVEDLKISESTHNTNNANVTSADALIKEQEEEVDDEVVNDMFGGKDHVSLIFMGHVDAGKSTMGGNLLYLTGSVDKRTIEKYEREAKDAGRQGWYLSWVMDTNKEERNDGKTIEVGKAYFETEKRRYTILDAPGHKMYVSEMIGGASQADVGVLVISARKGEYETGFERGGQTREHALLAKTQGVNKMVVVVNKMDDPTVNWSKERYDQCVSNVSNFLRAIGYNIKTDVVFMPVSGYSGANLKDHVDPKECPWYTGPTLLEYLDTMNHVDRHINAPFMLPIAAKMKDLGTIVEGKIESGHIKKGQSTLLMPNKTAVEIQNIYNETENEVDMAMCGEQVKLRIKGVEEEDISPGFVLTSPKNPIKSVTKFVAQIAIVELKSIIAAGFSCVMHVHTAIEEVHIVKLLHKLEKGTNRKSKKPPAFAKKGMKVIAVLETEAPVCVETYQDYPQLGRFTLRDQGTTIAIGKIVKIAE
RUN PARAMETERS: at 50 µM
# inhibition listing for each entry below

>  <COMPOUND>
CCN(CC)CC(=O)Nc1c(C)cccc1C

>  <inhibition, %>
0

$$$$
>  <COMPOUND>
Clc1ccc(CSC(Cn2ccnc2)c2ccc(Cl)cc2Cl)cc1 (stereo not drawn)

>  <inhibition, %>
10.1

$$$$
>  <COMPOUND>
O=c1cc(-c2ccccc2)oc2cc(O)c(O)c(O)c12

>  <inhibition, %>
17.6

$$$$
>  <COMPOUND>
OC(Cn1cncn1)(Cn1cncn1)c1ccc(F)cc1F

>  <inhibition, %>
9

$$$$
>  <COMPOUND>
Oc1c(I)cc(Cl)c2cccnc12

>  <inhibition, %>
0

$$$$
>  <COMPOUND>
O=C1NC(=O)c2cc(Nc3ccccc3)c(Nc3ccccc3)cc21

>  <inhibition, %>
44.7

$$$$
>  <COMPOUND>
COC(=O)C1=C(C)NC(C)=C(C(=O)OCCN(C)Cc2ccccc2)C1c1cccc([N+](=O)[O-])c1 (stereo not drawn)

>  <inhibition, %>
0

$$$$
>  <COMPOUND>
Clc1ccccc1C(c1ccccc1)(c1ccccc1)n1ccnc1 [CLOTRIMAZOLE]

>  <inhibition, %>
5.6

$$$$

---

MEASUREMENT TARGET: Eukaryotic peptide chain release factor GTP-binding subunit (Saccharomyces cerevisiae) (UniProt P05453)
RUN PARAMETERS: at 50 µM

>  <COMPOUND>
O=C1NC(=O)c2cc(Nc3ccccc3)c(Nc3ccccc3)cc21

>  <inhibition, %>
87.1

$$$$
>  <COMPOUND>
Clc1ccc(CSC(Cn2ccnc2)c2ccc(Cl)cc2Cl)cc1 (stereo not drawn)

>  <inhibition, %>
75.5

$$$$
>  <COMPOUND>
CCN(CC)CC(=O)Nc1c(C)cccc1C

>  <inhibition, %>
1.1

$$$$
>  <COMPOUND>
Oc1c(I)cc(Cl)c2cccnc12

>  <inhibition, %>
54.7

$$$$
>  <COMPOUND>
OC(Cn1cncn1)(Cn1cncn1)c1ccc(F)cc1F

>  <inhibition, %>
0

$$$$
>  <COMPOUND>
COC(=O)C1=C(C)NC(C)=C(C(=O)OCCN(C)Cc2ccccc2)C1c1cccc([N+](=O)[O-])c1 (stereo not drawn)

>  <inhibition, %>
61.5

$$$$
>  <COMPOUND>
Clc1ccccc1C(c1ccccc1)(c1ccccc1)n1ccnc1

>  <inhibition, %>
62.7

$$$$
>  <COMPOUND>
O=c1cc(-c2ccccc2)oc2cc(O)c(O)c(O)c12

>  <inhibition, %>
95.4

$$$$

---

Species on record: Mus musculus
TEST SUMMARY: Inhibition of mouse prion protein (89-230) assessed as inhibition of amyloid polymerization at 25 uM by thioflavin T fluorescence assay relative to untreated control
Short version: inhibition at least 70% is Met, less is Not met.

>  <QUERY SMILES>
Clc1ccccc1C(c1ccccc1)(c1ccccc1)n1ccnc1

>  <GROUP>
Not met

$$$$
>  <QUERY SMILES>
O=C1NC(=O)c2cc(Nc3ccccc3)c(Nc3ccccc3)cc21

>  <GROUP>
Met

$$$$
>  <QUERY SMILES>
CCN(CC)CC(=O)Nc1c(C)cccc1C

>  <GROUP>
Not met

$$$$
>  <QUERY SMILES>
Oc1ccc(/N=N/c2ccc(Br)cc2)cc1

>  <GROUP>
Met

$$$$

Origin of values: ChEMBL document CHEMBL1212700
